assay_name: Chemical stability (relative purity loss) of peptide compounds in buffer formulations (Table 6)
Type: physicochemical
experimental_setup: 50 mM phosphate buffer pH 7.4 + acetonitrile (3:1), 2° C. and 37° C., read-out: Chemical stability (relative purity loss), Buffer pH 7.4
Protocol: Purity of a peptide batch was determined through UHPLC/MS method A prior to chemical stability measurement. For stability assessment, the target concentration was 0.5 mg pure compound/ml. […] After this time course, the samples were centrifuged for 15 min at 2500 RCF to create a 1:5 dilution of the supernatant. Then 2 μl of the dilution were analyzed with UHPLC-UV applying method A. The chemical stability was rated through the relative loss of purity calculated by the equation: […]
Numbered stars: 1 amine (or outer) side, 2 acyl side, 3 side chain; on linkers, the order of the positions; unused ones are H or OH. Bridge positions count the residues as written; N and C are the ends. Square brackets hold non-standard residues; d marks the D form. Peptide text beside a SMILES is read from it. * marks the point of attachment. Lys(Me,(CH2)4NMe(CH2)4CO) = CN(CCCCC(=O)[*:3])CCCCN(C)CCCC[C@H](N[*:1])C(=O)[*:2]; X3 = Cc1cccc2c(C[C@H](N[*:1])C(=O)[*:2])cn(C)c12; Trp(7-Me) = Cc1cccc2c(C[C@H](N)C(=O)O)c[nH]c12; NH(2-(3-pyridyl)ethyl) = c1cncc(CCN*)c1; Sebacoyl = O=C(CCCCCCCCC(=O)[*:2])[*:1]; 2Nal = N[C@@H](Cc1ccc2ccccc2c1)C(=O)O; 3Pal = N[C@@H](Cc1cccnc1)C(=O)O; Aun = NCCCCCCCCCCC(=O)O; Thp = NC1(C(=O)O)CCOCC1; Me2NCH2CH2 = CN(C)CC*; Aib = CC(C)(N)C(=O)O; Sar = CNCC(=O)O
test_readout: degraded at 24 h (%)
One number for each entry, in %.

Give me degraded at 24 h for each of these compounds, listed below.
1. CC(=O)NCCCC[C@@H]1NC(=O)[C@H](Cc2c[nH]c3c(C)cccc23)NC(=O)CCCCN(C)CCCCN(C)CCCC[C@@H](C(=O)N[C@@H](CO)C(=O)N[C@@H](Cc2cccnc2)C(=O)N(C)CC(N)=O)NC(=O)C(C)(C)NC(=O)[C@H](Cc2ccc3ccccc3c2)NC(=O)[C@H](Cc2ccc(OCCN(C)C)cc2)NC(=O)C2(CCOCC2)NC1=O [compound 39] ([Trp(7-Me)]K(Ac)[Thp]Y(Me2NCH2CH2)[2Nal][Aib][Lys(Me,(CH2)4NMe(CH2)4CO)]S[3Pal][Sar]-NH2; lactam N-7)
2. CC(=O)NCCCC[C@@H]1NC(=O)[C@H](Cc2c[nH]c3c(C)cccc23)NC(=O)CCCCCCCCCCNC(=O)CC[C@@H](C(=O)N[C@@H](CC(N)=O)C(=O)N[C@@H](Cc2cccnc2)C(=O)N(C)CC(N)=O)NC(=O)C(C)(C)NC(=O)[C@H](Cc2ccc3ccccc3c2)NC(=O)[C@H](Cc2ccc(OCCN(C)C)cc2)NC(=O)C2(CCOCC2)NC1=O [compound 16] ([Aun][Trp(7-Me)]K(Ac)[Thp]Y(Me2NCH2CH2)[2Nal][Aib]EN[3Pal][Sar]-NH2; lactam N-8)
3. Cc1cccc2c(C[C@@H]3NC(=O)CCCCN(C)CCCCN(C)CCCC[C@@H](C(=O)NCC(=O)NCCc4cccnc4)NC(=O)C(C)(C)NC(=O)[C@H](Cc4ccc5ccccc5c4)NC(=O)[C@H](Cc4ccc(OCCN(C)C)cc4)NC(=O)C4(CCOCC4)NC(=O)[C@H](CC(C)C)NC3=O)cn(C)c12 [compound 49] ([X3]L[Thp]Y(Me2NCH2CH2)[2Nal][Aib][Lys(Me,(CH2)4NMe(CH2)4CO)]G-{NH(2-(3-pyridyl)ethyl)}; lactam N-7)
4. Cc1cccc2c(C[C@@H]3NC(=O)CCCCCCCCC(=O)NCCCC[C@@H](C(=O)N[C@@H](CC(N)=O)C(=O)N[C@@H](Cc4cccnc4)C(=O)N(C)CC(N)=O)NC(=O)C(C)(C)NC(=O)[C@H](Cc4ccc5ccccc5c4)NC(=O)[C@H](Cc4ccc(OCCN(C)C)cc4)NC(=O)C4(CCOCC4)NC(=O)[C@H](CCC(N)=O)NC3=O)c[nH]c12 [compound 11] ([Trp(7-Me)]Q[Thp]Y(Me2NCH2CH2)[2Nal][Aib]KN[3Pal][Sar]-NH2; linker N-7 via Sebacoyl)

[0, 0.6, 0, 0]

###

assay_name: Solubility of peptide compounds in buffer formulations (Table 5)
Type: physicochemical
experimental_setup: aqueous buffer; 50 mM phosphate buffer pH 7.4, 2 h agitation, target 1 mg/ml; read-out: Solubility, Buffer pH 7.4
Numbered stars: 1 amine (or outer) side, 2 acyl side, 3 side chain; on linkers, the order of the positions; unused ones are H or OH. Bridge positions count the residues as written; N and C are the ends. Square brackets hold non-standard residues; d marks the D form. Peptide text beside a SMILES is read from it. * marks the point of attachment. Lys(Me,(CH2)4NMe(CH2)4CO) = CN(CCCCC(=O)[*:3])CCCCN(C)CCCC[C@H](N[*:1])C(=O)[*:2]; Trp(7-Me) = Cc1cccc2c(C[C@H](N)C(=O)O)c[nH]c12; Trp(1-Me) = Cn1cc(C[C@H](N)C(=O)O)c2ccccc21; αMeLys(Me2) = CN(C)CCCC[C@](C)(N)C(=O)O; 2Nal = N[C@@H](Cc1ccc2ccccc2c1)C(=O)O; Suberoyl = O=C(CCCCCCC(=O)[*:2])[*:1]; 3Pal = N[C@@H](Cc1cccnc1)C(=O)O; Thp = NC1(C(=O)O)CCOCC1; Me2NCH2CH2 = CN(C)CC*; Aib = CC(C)(N)C(=O)O; Sar = CNCC(=O)O
I'd be grateful if you could share measured solubility at 2 h for these entries.

compound	observed
Cc1cccc2c(C[C@@H]3NC(=O)CCCCCCC(=O)NCCCC[C@@H](C(=O)N[C@@H](CC(N)=O)C(=O)N[C@@H](Cc4cccnc4)C(=O)N(C)CC(N)=O)NC(=O)C(C)(C)NC(=O)[C@H](Cc4ccc5ccccc5c4)NC(=O)[C@H](Cc4ccc(OCCN(C)C)cc4)NC(=O)C4(CCOCC4)NC(=O)[C@H](CCC(N)=O)NC3=O)c[nH]c12 [compound 12] ([Trp(7-Me)]Q[Thp]Y(Me2NCH2CH2)[2Nal][Aib]KN[3Pal][Sar]-NH2; linker N-7 via Suberoyl)	≥ 1150 µg/mL

solubility at 2 h for CN(C)CCCC[C@]1(C)NC(=O)[C@H](Cc2ccc3ccccc3c2)NC(=O)[C@H](Cc2ccc(OCCN(C)C)cc2)NC(=O)C2(CCOCC2)NC(=O)[C@H](CCC(N)=O)NC(=O)[C@H](Cc2cn(C)c3ccccc23)NC(=O)CCCCN(C)CCCCN(C)CCCC[C@@H](C(=O)N[C@@H](CO)C(=O)N[C@@H](Cc2cccnc2)C(=O)N(C)CC(N)=O)NC1=O [compound 45] ([Trp(1-Me)]Q[Thp]Y(Me2NCH2CH2)[2Nal][αMeLys(Me2)][Lys(Me,(CH2)4NMe(CH2)4CO)]S[3Pal][Sar]-NH2; lactam N-7) ?
≥ 1030 µg/mL

###

assay_name: Solubility of peptide compounds in buffer formulations (Table 5)
Format: physicochemical
experimental_setup: Buffer pH 1.1 (head; method: 50 mM HCl pH 1.2), 2 h agitation, target 1 mg/ml; read-out: Solubility, Buffer pH 1.1
Numbered stars: 1 amine (or outer) side, 2 acyl side, 3 side chain; on linkers, the order of the positions; unused ones are H or OH. Bridge positions count the residues as written; N and C are the ends. Square brackets hold non-standard residues; d marks the D form. Peptide text beside a SMILES is read from it. * marks the point of attachment. Lys(Me,(CH2)4NMe(CH2)5CO) = CN(CCCCCC(=O)[*:3])CCCCN(C)CCCC[C@H](N[*:1])C(=O)[*:2]; Lys(Me,(CH2)4NMe(CH2)4CO) = CN(CCCCC(=O)[*:3])CCCCN(C)CCCC[C@H](N[*:1])C(=O)[*:2]; Trp(7-Me) = Cc1cccc2c(C[C@H](N)C(=O)O)c[nH]c12; αMeLys(Me2) = CN(C)CCCC[C@](C)(N)C(=O)O; 2Nal = N[C@@H](Cc1ccc2ccccc2c1)C(=O)O; 3Pal = N[C@@H](Cc1cccnc1)C(=O)O; Thp = NC1(C(=O)O)CCOCC1; Me2NCH2CH2 = CN(C)CC*; Aib = CC(C)(N)C(=O)O; Sar = CNCC(=O)O
test_readout: solubility at 2 h

Solved cases below.
molecule	observed
CC(=O)NCCCC[C@@H]1NC(=O)[C@H](Cc2c[nH]c3c(C)cccc23)NC(=O)CCCCN(C)CCCCN(C)CCCC[C@@H](C(=O)N[C@@H](CC(N)=O)C(=O)N[C@@H](Cc2cccnc2)C(=O)N(C)CC(N)=O)NC(=O)[C@](C)(CCCCN(C)C)NC(=O)[C@H](Cc2ccc3ccccc3c2)NC(=O)[C@H](Cc2ccc(OCCN(C)C)cc2)NC(=O)C2(CCOCC2)NC1=O [compound 47] ([Trp(7-Me)]K(Ac)[Thp]Y(Me2NCH2CH2)[2Nal][αMeLys(Me2)][Lys(Me,(CH2)4NMe(CH2)4CO)]N[3Pal][Sar]-NH2; lactam N-7)	≥ 1200 µg/mL
CC(=O)NCCCC[C@@H]1NC(=O)[C@H](Cc2c[nH]c3c(C)cccc23)NC(=O)CCCCN(C)CCCCN(C)CCCC[C@@H](C(=O)N[C@@H](CC(N)=O)C(=O)N[C@@H](Cc2cccnc2)C(=O)N(C)CC(N)=O)NC(=O)C(C)(C)NC(=O)[C@H](Cc2ccc3ccccc3c2)NC(=O)[C@H](Cc2ccc(OCCN(C)C)cc2)NC(=O)C2(CCOCC2)NC1=O [compound 32] ([Trp(7-Me)]K(Ac)[Thp]Y(Me2NCH2CH2)[2Nal][Aib][Lys(Me,(CH2)4NMe(CH2)4CO)]N[3Pal][Sar]-NH2; lactam N-7)	≥ 950 µg/mL
CC(=O)NCCCC[C@@H]1NC(=O)[C@H](Cc2c[nH]c3c(C)cccc23)NC(=O)CCCCN(C)CCCCN(C)CCCC[C@@H](C(=O)NCC(=O)N[C@@H](Cc2cccnc2)C(=O)N(C)CC(N)=O)NC(=O)C(C)(C)NC(=O)[C@H](Cc2ccc3ccccc3c2)NC(=O)[C@H](Cc2ccc(OCCN(C)C)cc2)NC(=O)C2(CCOCC2)NC1=O [compound 29] ([Trp(7-Me)]K(Ac)[Thp]Y(Me2NCH2CH2)[2Nal][Aib][Lys(Me,(CH2)4NMe(CH2)4CO)]G[3Pal][Sar]-NH2; lactam N-7)	≥ 970 µg/mL

solubility at 2 h for Cc1cccc2c(C[C@@H]3NC(=O)CCCCCN(C)CCCCN(C)CCCC[C@@H](C(=O)NCC(=O)N[C@@H](Cc4cccnc4)C(=O)N(C)CC(N)=O)NC(=O)C(C)(C)NC(=O)[C@H](Cc4ccc5ccccc5c4)NC(=O)[C@H](Cc4ccc(OCCN(C)C)cc4)NC(=O)C4(CCOCC4)NC(=O)[C@H](CCC(N)=O)NC3=O)c[nH]c12 [compound 26] ([Trp(7-Me)]Q[Thp]Y(Me2NCH2CH2)[2Nal][Aib][Lys(Me,(CH2)4NMe(CH2)5CO)]G[3Pal][Sar]-NH2; lactam N-7) ?
≥ 1000 µg/mL
